# Assay explanation: Standard protocol for determination of kcat and KM (continuous spectrophotometric assay, Acetyl CoA hydrolysis at 235 nm)
# Assay type: biochemical
# Settings: purified protein; about 23° C.; pH 6.8; 0.2 mM acetyl CoA; glyphosate 0.125 to 10 mM

Molecule: SEQ ID NO: 368: GAT polypeptide (protein, 4B_13G10, GAT polypeptide) MIEVKPINAEDTYEIRHRILRPNQPLEACMYETDLLGGTFHLGGYYRGKLISIASFHQAEHSELEGQKQYQLRGMATLEGYREQKAGSTLIRHAEELLRKKGADLLWCNARTSASGYYKKLGFSEQGGVYDIPPIGPYILMYKKLT
Km [µM]: 7600
--
Molecule: SEQ ID NO: 274: GAT polypeptide (protein, 10_1H3, GAT polypeptide) MIEVKPINAEDTYEIRHRILRPNQPLEACKYETDLLGGTFHLGGYYRGKLVSIASFHQAEHPELEGRKQYQLRGMATLEGYREQKAGSTLIRHAEELLRKKGADLLWCNARTSASGYYKKLGFSEQGEVYDIPPTGPHILMYKKLT
Km [µM]: 1900
--
Molecule: SEQ ID NO: 445: GAT polypeptide (protein, 0_5D3, GAT polypeptide) MLEVKPINAEDTYELRHRILRPNQPIEACMYESDLLRGAFHLGGYYRGKLISIASFHQAEHSELQGQKQYQLRGMATLEGYREQKAGSSLIKHAEEILRKRGADLLWCNARTSASGYYKKLGFSEQGEIFETPPVGPHILMYKRIT
Km [µM]: 500
--
Molecule: SEQ ID NO: 373: GAT polypeptide (protein, 4B_1G4, GAT polypeptide) MIEVKPINAEDTYEIRHRILRPNQPLEACKYETDLLGGAFHLGGYYRGKLISIASFHQSEHPELEGQKQYQLRGMATLEGYRELKAGSTLIRHAEELLRKKGADLLWCNARISASGYYKKLGFSEQGEVYDIPPIGPHILMYKKLT
Km [µM]: 1000
--
Molecule: SEQ ID NO: 407: GAT polypeptide (protein, 6_5D11, GAT polypeptide) MIEVKPINAEDTYEIRHRILRPNQPLEACMYETDLLGGTFHLGGYYRGKLISIASFHQAEHPELEGQKQYQLRGMATLEEYREQKAGSTLIRHAEELLRKKGADLLWCNARTSASGYYKKLGFSEQGEVYDIPPIGPHILMYKKLT
Km [µM]: 1000
--
Molecule: SEQ ID NO: 342: GAT polypeptide (protein, 16H3, GAT polypeptide) MIDVKPINAEDTYEIRHRILRPNQPLEACKYETDLLGGTFHLGGYYQGKLISIASFHQAEHSELEGQKQYQLRGMATLEGYREQKAGSTLIRHAEELLRKKGADLLWCNARTSVSGYYEKLGFSEQGEVYDIPPIGPHILMYKKLT
Km [µM]: 2900
--
Molecule: SEQ ID NO: 474: GAT polypeptide (protein, 1_2F8, GAT polypeptide) MLEVKPINAEDTYELRHRILRPNQPLEACMYETDLLRGSFHLGGFYRGKLISIASFHQAEHSELEGQKQYQLRGMATLEGYRDQKAGSSLIRHAEEILRKRGADMLWCNARTTAAGYYKKLGFSEQGEIYDTPPVGPHILMYKKLT
Km [µM]: 1900
--
Molecule: SEQ ID NO: 399: GAT polypeptide (protein, 6_23H3, GAT polypeptide) MIEVKPINAEDTYEIRHRILRPNQPLEACMYGTDLLGGTFHLGGYYRGKLISIASFHQAEQPELEGQKQYQLRGMATLEGYREQKAGSTLIRHAEELLRKKGADLLWCNARTSASGYYKKLGFSEQGGVYDIPPVGPHILMYKKLT
Km [µM]: 1100
--
Molecule: SEQ ID NO: 482: GAT polypeptide (protein, 1_4H1, GAT polypeptide) MIEVKPINAEDTYELRHRILRPNQPLEACMYETDLLRGSFHLGGFYRGKLISIASFHQAEHSDLQGQKQYQLRGMATLEGYREQKAGSTLIRHAEQLLRKRGADLLWCNARTSASGYYKRLGFSEHGEVFDTPPVGPHILMYKRLT
Km [µM]: 1200
--
Molecule: SEQ ID NO: 265: GAT polypeptide (protein, 14_2A5, GAT polypeptide) MIEVKPINAEDTYEIRHRILRPNQPLEACKYETDLLGSTFHLGGYYRGKLISIASFNQAEHPELEGQKQYQLRGMATLEGYREQKAGSTLIRHAEELLRKKGADLLWCNARTSASGYYKKLGFSEQGEVYDTPPVGPHILMYKKLT
Km [µM]: 1600
--
Molecule: SEQ ID NO: 341: GAT polypeptide (protein, 16A1, GAT polypeptide) MIEVKPINAEDTYEIRHRILRPNQPLEACMYETDLLGGTLHLGGYYQGKLISIASFHKAEHSGLEGEEQYQLRGMATLEGYREQKAGSTLIRHAEELLRKKGADLLWCNARTSVSGYYEKLGFSEQGEVYDIPPIGPHILMYKKLT
Km [µM]: 2900
--
Molecule: SEQ ID NO: 508: GAT polypeptide (protein, GAT1_21F12, GAT polypeptide) MIEVKPINAEDTYEIRHRILRPNQPLEACKYETDLLGGTFHLGGYYRGKLISIASFHNAEHSELEGQKQYQLRGMATLEGYREQKAGSTLIRHAEELLRKKGADLLWCNARTSVSGYYKKLGFSEQGEVYDIPPIGPHILMYKKLT
Km [µM]: 4600
